Attribution: patent US10285982B2

Overview of recorded inhibition at 10 µM for various compounds
System: primary human fibroblasts derived from IPF patients (LL29 cells) treated with TGF-β1
Assay: Inhibition of fibrotic process, αSMA staining in TGF-β1 treated LL29 fibroblasts
Format: cell-based
Conditions: Fibroblast, at 10 μM, given where EC50 >10 μM, αSMA, LL29 cells, TGF-β1, read-out: percent inhibition at 10 μM
parameter-measured: inhibition at 10 µM

compound | result
O=C(Nc1cncc(-c2cc3c(-c4cc5cccnc5[nH]4)n[nH]c3cn2)c1)c1ccccc1 [Compound 263] | 55.3%
O=C(Nc1cncc(-c2cc3c(-c4cc5c(-c6cccnc6)ccnc5[nH]4)n[nH]c3cn2)c1)c1ccccc1 [Compound 95] | 0.8%
CN1CCN(c2ccnc3[nH]c(-c4n[nH]c5cnc(-c6cncc(N(C)C)c6)cc45)cc23)CC1 [Compound 231] | 41.8%
O=C(Cc1ccccc1)Nc1cncc(-c2cc3c(-c4cc5cccnc5[nH]4)n[nH]c3cn2)c1 [Compound 262] | 45.5%

* * *

Test system: IL-6 (THP-1 cells)
Assay: IL-6 inhibition in LPS-stimulated THP-1 cells (HTRF)
Format: cell-based
Conditions: Homo sapiens; at 10 μM, given where EC50 >10 μM; IL-6, THP-1 cells, LPS; read-out: percent inhibition at 10 μM
Cut-off 20% on inhibition at 10 µM, inclusive. At or above means met; below means not met.

molecular-string | cat
c1ccc(-c2cc3c(-c4cc5c(-c6ccncc6)ccnc5[nH]4)n[nH]c3cn2)nc1 | met
O=C(Nc1cncc(-c2cc3c(-c4cc5c(-c6ccncc6)ccnc5[nH]4)n[nH]c3cn2)c1)C1CCCCC1 | not met
Cc1ccncc1-c1cc2c(-c3cc4c(-c5ccncc5)ccnc4[nH]3)n[nH]c2cn1 | not met
O=C(Nc1cncc(-c2cc3c(-c4cc5c(-c6ccc(F)cc6)ccnc5[nH]4)n[nH]c3cn2)c1)C1CCC1 | met
O=C(Nc1cncc(-c2cc3c(-c4cc5c(-c6cccc(F)c6)ccnc5[nH]4)n[nH]c3cn2)c1)C1CC1 | met
CCCCC(=O)Nc1cncc(-c2cc3c(-c4cc5c(-c6cccnc6)ccnc5[nH]4)n[nH]c3cn2)c1 | not met
CN1CCN(c2ccnc3[nH]c(-c4n[nH]c5cnc(-c6cncc(NC(=O)CC7CCNCC7)c6)cc45)cc23)CC1 | met
c1cncc(-c2ccnc3[nH]c(-c4n[nH]c5cnc(-c6cncc(CN7CCCC7)c6)cc45)cc23)c1 | met
c1cc(N2CCCCC2)c2cc(-c3n[nH]c4cnc(C5CCNCC5)cc34)[nH]c2n1 | not met
CN(C)CCOc1cncc(-c2cc3c(-c4cc5c(-c6cccnc6)ccnc5[nH]4)n[nH]c3cn2)c1 | not met
O=C(Nc1cncc(-c2cc3c(-c4cc5cccnc5[nH]4)n[nH]c3cn2)c1)c1ccccc1 | met
CN(C)Cc1cncc(-c2cc3c(-c4cc5c(-c6ccccc6F)ccnc5[nH]4)n[nH]c3cn2)c1 | not met
CCNCc1cncc(-c2cc3c(-c4cc5c(-c6ccccc6F)ccnc5[nH]4)n[nH]c3cn2)c1 | met
c1cc(N2CCCCC2)c2cc(-c3n[nH]c4cnc(-c5cncc(CN6CCCC6)c5)cc34)[nH]c2n1 | met
CCNCc1cncc(-c2cc3c(-c4cc5c(-c6cccnc6)ccnc5[nH]4)n[nH]c3cn2)c1 | met

* * *

Test system: primary human fibroblasts derived from IPF patients (LL29 cells) treated with TGF-β1
Assay: Inhibition of fibrotic process, αSMA staining in TGF-β1 treated LL29 fibroblasts
Type: cell-based
Conditions: Fibroblast, at 10 μM, given where EC50 >10 μM, αSMA, LL29 cells, TGF-β1, read-out: percent inhibition at 10 μM
Cut-off 10% on inhibition at 10 µM, inclusive. At or above means satisfied; below means not satisfied.

compound | cat
CC(C)CC(=O)Nc1cncc(-c2cc3c(-c4cc5c(-c6ccncc6)ccnc5[nH]4)n[nH]c3cn2)c1 [Compound 114] | not satisfied
O=C(Nc1cncc(-c2cc3c(-c4cc5c(-c6ccncc6)ccnc5[nH]4)n[nH]c3cn2)c1)C1CCCCC1 [Compound 135] | satisfied
c1cc(N2CCCCC2)c2cc(-c3n[nH]c4cnc(C5CCNCC5)cc34)[nH]c2n1 [Compound 601] | satisfied
CN(C)CCNc1cc(F)cc(-c2ccnc3[nH]c(-c4n[nH]c5cnc(-c6cncnc6)cc45)cc23)c1 [Compound 475] | satisfied
CC(C)Nc1cncc(-c2cc3c(-c4cc5c(-c6cccnc6)ccnc5[nH]4)n[nH]c3cn2)c1 [Compound 96] | not satisfied
O=C(Cc1ccccc1)Nc1cncc(-c2cc3c(-c4cc5c(-c6ccncc6)ccnc5[nH]4)n[nH]c3cn2)c1 [Compound 122] | not satisfied
CN(C)Cc1cncc(-c2cc3c(-c4cc5c(-c6ccccc6F)ccnc5[nH]4)n[nH]c3cn2)c1 [Compound 69] | not satisfied

* * *

Overview of recorded inhibition at 10 µM for various molecules
Tested on: IL-6 (THP-1 cells)
Assay: IL-6 inhibition in LPS-stimulated THP-1 cells (HTRF)
Format: cell-based
Settings: Homo sapiens; at 10 μM, given where EC50 >10 μM; IL-6, THP-1 cells, LPS; read-out: percent inhibition at 10 μM

molecular-string | inhibition at 10 µM / %
O=C(Nc1cncc(-c2cc3c(-c4cc5c(-c6ccncc6)ccnc5[nH]4)n[nH]c3cn2)c1)C1CCC1 | 11.9
CC(C)Nc1cncc(-c2cc3c(-c4cc5c(-c6cccnc6)ccnc5[nH]4)n[nH]c3cn2)c1 | 23.5
CC(C)(C)C(=O)Nc1cncc(-c2cc3c(-c4cc5c(-c6cccc(F)c6)ccnc5[nH]4)n[nH]c3cn2)c1 | 45.4
Fc1cccc(-c2ccnc3[nH]c(-c4n[nH]c5cnc(-c6cncc(CN7CCCC7)c6)cc45)cc23)c1 | 21.6

* * *

Tested on: SW480 colon cancer cells
Assay: Cell viability assay (CellTiter-Blue)
Assay type: cell-based
Settings: Homo sapiens, 96 h, four days
parameter-measured: EC50 (µM)

molecule | parameter-measured | measurement-unit | relation-operator | quantitative-readout
CN(C)Cc1cncc(-c2cc3c(-c4cc5c(-c6ccncc6)ccnc5[nH]4)n[nH]c3cn2)c1 [Compound 125] | EC50 | µM | > | 10
c1cc(N2CCCCC2)c2cc(-c3n[nH]c4cnc(-c5cncc(CN6CCCC6)c5)cc34)[nH]c2n1 [Compound 182] | EC50 | µM | > | 10
O=C(Nc1cncc(-c2cc3c(-c4cc5c(-c6ccccc6F)ccnc5[nH]4)n[nH]c3cn2)c1)C1CCCCC1 [Compound 79] | EC50 | µM | = | 3.49
CC(C)C(=O)Nc1cncc(-c2cc3c(-c4cc5c(N6CCCCC6)ccnc5[nH]4)n[nH]c3cn2)c1 [Compound 177] | EC50 | µM | = | 1.08
Fc1ccccc1-c1ccnc2[nH]c(-c3n[nH]c4cnc(-c5ccccn5)cc34)cc12 [Compound 84] | EC50 | µM | = | 0.411
FC1(F)CCN(Cc2cncc(-c3cc4c(-c5cc6cccnc6[nH]5)n[nH]c4cn3)c2)C1 [Compound 278] | EC50 | µM | = | 5.01
CN1CCN(c2ccnc3[nH]c(-c4n[nH]c5cnc(-c6cncc(NC(=O)CC7CCNCC7)c6)cc45)cc23)CC1 [Compound 641] | EC50 | µM | > | 10
O=C(Nc1cncc(-c2cc3c(-c4cc5c(-c6cccnc6)ccnc5[nH]4)n[nH]c3cn2)c1)c1ccccc1 [Compound 95] | EC50 | µM | > | 10
CN1CCN(c2ccnc3[nH]c(-c4n[nH]c5cnc(-c6cncc(CNCC7CCCC7)c6)cc45)cc23)CC1 [Compound 249] | EC50 | µM | = | 4.29
Fc1cccc(-c2ccnc3[nH]c(-c4n[nH]c5cnc(-c6cncc(CN7CCCC7)c6)cc45)cc23)c1 [Compound 14] | EC50 | µM | > | 10
Fc1cccc(-c2ccnc3[nH]c(-c4n[nH]c5cnc(-c6cncnc6)cc45)cc23)c1 [Compound 27] | EC50 | µM | > | 10
Oc1cncc(-c2cc3c(-c4cc5c(-c6ccc(F)cc6)ccnc5[nH]4)n[nH]c3cn2)c1 [Compound 533] | EC50 | µM | = | 0.483
CC(C)CC(=O)Nc1cncc(-c2cc3c(-c4cc5c(-c6ccc(F)cc6)ccnc5[nH]4)n[nH]c3cn2)c1 [Compound 30] | EC50 | µM | = | 2.47
CCNCc1cncc(-c2cc3c(-c4cc5c(-c6ccccc6F)ccnc5[nH]4)n[nH]c3cn2)c1 [Compound 62] | EC50 | µM | > | 10
CC(C)C(=O)Nc1cncc(-c2cc3c(-c4cc5c(-c6ccc(F)cc6)ccnc5[nH]4)n[nH]c3cn2)c1 [Compound 37] | EC50 | µM | = | 2.69
CN(C)CCNc1cc(F)cc(-c2ccnc3[nH]c(-c4n[nH]c5cnc(-c6cncnc6)cc45)cc23)c1 [Compound 475] | EC50 | µM | > | 10
c1csc(-c2ccnc3[nH]c(-c4n[nH]c5cnc(-c6cncc(CN7CCCCC7)c6)cc45)cc23)c1 [Compound 351] | EC50 | µM | = | 4.1
O=C(Cc1ccccc1)Nc1cncc(-c2cc3c(-c4cc5c(-c6ccccc6F)ccnc5[nH]4)n[nH]c3cn2)c1 [Compound 66] | EC50 | µM | = | 0.62
c1csc(-c2ccnc3[nH]c(-c4n[nH]c5cnc(-c6cncc(OC7CCCCC7)c6)cc45)cc23)c1 [Compound 703] | EC50 | µM | > | 10
c1ccc(-c2cc3c(-c4cc5c(-c6cccs6)ccnc5[nH]4)n[nH]c3cn2)nc1 [Compound 364] | EC50 | µM | = | 0.706
CC(C)Nc1cncc(-c2cc3c(-c4cc5c(N6CCCCC6)ccnc5[nH]4)n[nH]c3cn2)c1 [Compound 180] | EC50 | µM | = | 1.54
O=C(Nc1cncc(-c2cc3c(-c4cc5cccnc5[nH]4)n[nH]c3cn2)c1)C1CC1 [Compound 272] | EC50 | µM | > | 10
O=C(Cc1ccccc1)Nc1cncc(-c2cc3c(-c4cc5cccnc5[nH]4)n[nH]c3cn2)c1 [Compound 262] | EC50 | µM | > | 10
CC(C)(C)CC(=O)Nc1cncc(-c2cc3c(-c4cc5c(-c6ccc(F)cc6)ccnc5[nH]4)n[nH]c3cn2)c1 [Compound 44] | EC50 | µM | = | 1.16
CCCCC(=O)Nc1cncc(-c2cc3c(-c4cc5c(-c6cccnc6)ccnc5[nH]4)n[nH]c3cn2)c1 [Compound 103] | EC50 | µM | > | 10
Cc1ncc(-c2cc3c(-c4cc5c(-c6cccs6)ccnc5[nH]4)n[nH]c3cn2)n1C [Compound 701] | EC50 | µM | = | 1.22
O=C(Nc1cncc(-c2cc3c(-c4cc5cccnc5[nH]4)n[nH]c3cn2)c1)c1ccccc1 [Compound 263] | EC50 | µM | > | 10
c1cncc(-c2ccnc3[nH]c(-c4n[nH]c5cnc(-c6cncnc6)cc45)cc23)c1 [Compound 111] | EC50 | µM | > | 10
Nc1cncc(-c2cc3c(-c4cc5c(-c6ccoc6)ccnc5[nH]4)n[nH]c3cn2)c1 [Compound 311] | EC50 | µM | > | 10
CN(C)CCNc1cc(F)cc(-c2ccnc3[nH]c(-c4n[nH]c5cnc(-c6ccncc6)cc45)cc23)c1 [Compound 466] | EC50 | µM | > | 10
